Measured z-score, listed per entry.
Experiment: HepG2 liver cancer cell viability effects, profiling panel, resazurin fluorescence, 24 h, PK04 Diversity Set (AID 1172); further: test concentration not given here
Conditions: higher = more signal
Reported Endpoint: z-score

[[record]]
compound = "CCCNC(=O)[C@@]1(c2ccc([N+](=O)[O-])cc2)CC(=O)N(C2CCCCC2)[C@@H]1c1ccc(CO)cc1I"
reported_endpoint = "z-score"
value_measured = -0.455

[[record]]
compound = "COc1cc2c(cc1OC)CN(C(=O)[C@H]1[C@@H]3C(=O)O[C@@H](c4ccccc4)[C@@H](c4ccccc4)N3[C@@H](c3ccc(OCCO)cc3)[C@]13C(=O)Nc1ccc(C#CC4(O)CCCCCC4)cc13)CC2"
reported_endpoint = "z-score"
value_measured = 0.0686

[[record]]
compound = "O=C1NC(=O)C2C1C=CC(C(O)c1ccc3c(c1)OCO3)N2Nc1ccccn1 (stereo not drawn)"
reported_endpoint = "z-score"
value_measured = -0.861

[[record]]
compound = "C[C@H]1C2=C3C(CC[C@H]4C(OCc5ccc(F)cc5C(F)(F)F)OC[C@](C)([C@@H]34)N(C(=O)OC(C)(C)C)C2)C(CO)C1CO (stereo partly drawn)"
reported_endpoint = "z-score"
value_measured = -1.49

[[record]]
compound = "O=C1O[C@@H](c2ccccc2)[C@@H](c2ccccc2)N2[C@@H](c3ccccc3OCCO)[C@]3(C(=O)Nc4ccc(C#CC5=CCCCC5)cc43)[C@@H](C(=O)NC[C@H](O)c3ccccc3)[C@H]12"
reported_endpoint = "z-score"
value_measured = -1.33

[[record]]
compound = "C=CCC(OC(C)=O)[C@@H]1[C@@H](N(Cc2ccc(-c3ccccc3)cc2)C(=O)c2cccc3ccccc23)c2cc(OCCCO)ccc2N1C(=O)Cc1ccc2ccccc2c1 (stereo partly drawn)"
reported_endpoint = "z-score"
value_measured = 0.0989

[[record]]
compound = "O=c1cccc(-c2ccc(C(F)(F)F)cc2)o1"
reported_endpoint = "z-score"
value_measured = -0.0559

[[record]]
compound = "CC=CC(O)C1C=CC2C(=O)N(c3ccccc3)C(=O)C2N1Nc1ccc([N+](=O)[O-])cc1 (stereo not drawn)"
reported_endpoint = "z-score"
value_measured = -0.0211


###

Assay: small-molecule binders of probe aInhba, primary screen, biochemical, small-molecule microarray, 635/667 nm fluorescence (AID 1148);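 further: score merges 667nm spot fluorescence with signal-to-noise for antibody binding to printed compounds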
Settings: higher = more signal
Entry flag: y if composite z-score reaches -0.08; n if it does not.

[[record]]
molecule = "CCN(CC)c1ccc(N2CC=CC34O[C@@H]5/C=C\\CCC(C)OC(=O)C5[C@H]3C(=O)N(CCO)[C@@H]4C2=O)cc1 (stereo not given in full)"
group = "y"

[[record]]
molecule = "Cc1ccc(S[C@]2(C(=O)NCc3ccccc3)CC(=O)N(C(C)C)[C@@H]2c2ccc(CO)cc2I)cc1"
group = "y"

[[record]]
molecule = "NCCCCCCNC(=O)[C@@H]1C[C@@H]2C(=O)N3CCC[C@H]3C(=O)N2[C@@H]1c1ccc(O)cc1"
group = "n"

[[record]]
molecule = "CCOC(=O)C1=CC[C@@H](c2ccc([N+](=O)[O-])cc2)N(S(=O)(=O)c2ccc(C)cc2)[C@H]1c1ccccc1"
group = "y"

[[record]]
molecule = "COCCCNC(=O)[C@@H]1c2ccccc2C(=O)N(Cc2ccccc2C(F)(F)F)[C@H]1c1ccc(CO)cc1"
group = "y"

[[record]]
molecule = "C[N+](C)(C)CCCC[C@@H]1NC(=O)[C@@H]2C[C@H](C(=O)O)[C@H](c3ccc(O)cc3)N2C1=O"
group = "n"

[[record]]
molecule = "COc1ccc([Si](C)(C)[C@@H]2[C@@H](CCO)O[C@]3(C(=O)N(Cc4cccc(N5C(=O)c6ccccc6Oc6ccccc65)c4)c4ccccc43)[C@H]2C)cc1"
group = "n"

[[record]]
molecule = "CCOC(=O)C1=CC[C@@H](c2ccccc2)N(S(=O)(=O)c2ccc(C)cc2)C1"
group = "y"

[[record]]
molecule = "NC(=O)NCC#Cc1ccc2c(c1)[C@]1(C(=O)N2)[C@H](C(=O)Nc2nc3ccccc3s2)[C@H]2C(=O)O[C@H](c3ccccc3)[C@H](c3ccccc3)N2[C@@H]1c1ccc(O)cc1"
group = "y"

